Target: UniProt:P28327
Sequence (P28327 whole entry): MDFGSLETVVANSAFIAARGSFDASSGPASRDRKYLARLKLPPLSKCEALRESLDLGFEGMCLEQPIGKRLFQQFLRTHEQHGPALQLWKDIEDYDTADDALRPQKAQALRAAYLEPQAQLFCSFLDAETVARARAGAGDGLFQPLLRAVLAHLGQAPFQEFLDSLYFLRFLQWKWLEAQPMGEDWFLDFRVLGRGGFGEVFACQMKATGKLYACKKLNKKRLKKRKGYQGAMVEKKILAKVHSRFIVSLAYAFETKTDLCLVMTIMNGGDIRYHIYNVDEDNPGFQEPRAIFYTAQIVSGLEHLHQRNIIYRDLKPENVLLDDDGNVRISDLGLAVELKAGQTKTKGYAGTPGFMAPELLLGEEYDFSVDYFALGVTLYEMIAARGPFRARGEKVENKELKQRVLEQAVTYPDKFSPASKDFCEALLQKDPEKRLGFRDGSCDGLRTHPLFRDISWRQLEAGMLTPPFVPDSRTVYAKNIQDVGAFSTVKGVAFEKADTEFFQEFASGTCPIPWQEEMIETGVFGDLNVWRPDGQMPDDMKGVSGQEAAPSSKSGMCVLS
Test: ChEBML_1612830
measured.attribute: IC50 (µM)
Just the number please, in µM, no unit attached.

Entry `Fc1ccc([C@@H]2CCNC[C@H]2COc2ccc3c(c2)OCO3)cc1` ; IC50 = 398

Ref: BindingDB's records for doi:10.1021/acs.jmedchem.5b01939
